- PROTOCOL SUMMARY: Rodent pharmacokinetic study
- Format: in vivo
- CONDITION INFO: Wistar, plasma; Wister rat/Male, 15 mg/kg Per-Oral vs 5 mg/kg Intravenous

COMPOUND	READING UNIT	bioavailability
CN(C)CC1CC2CC2N1c1cncc(Br)c1.Cl (stereo not shown)	%	10
